Molecular target: DLG1_3, Q12959
Sequence (Q12959 457-571): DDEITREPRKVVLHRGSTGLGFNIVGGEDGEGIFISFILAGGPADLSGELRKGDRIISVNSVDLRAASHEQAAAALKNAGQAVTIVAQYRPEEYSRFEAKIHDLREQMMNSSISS
Test: holdup assay
Set-up: key: below the threshold = too weak to quantify, mostly under pKd 3.1 to 4
Settings: plain residues with an end cap or a label only (N-terminal biotin on a linker: ttds)
assay-metric: pKd

Examples from the recorded data:
QSARYRDTEL [TJP2, Q9UDY2] : 3.83
SRPQRTQTQV [HPV67-E6, A4U7F2] : 4.13
SVWLRKETRV [CYSLTR2, Q9NS75] : 5.57
IDNDTESTAL [ARHGAP17, Q68EM7] : below the threshold

API: the following record is the query input.
Briefly, pKd measured for GQDSREETQL [KCNT2, Q6UVM3] : below the threshold
